These measurements were taken from PubChem BioAssay (NCI).

tested on: TK-10 renal; assay: NCI tumour cell line growth inhibition, 48 h
Record form. Attribute: log10(TGI). Fill in for each entry.
Values are log10 of TGI in µM.

Answered examples (5):
Clc1ccc2c(NC3CCC(NC4CCCCC4)CC3)ccnc2c1 (stereo not given); 0.85
CCCN1CCC(Oc2cc(Nc3nc(Nc4cccc(F)c4C(N)=O)c4cc[nH]c4n3)c(OC)cc2Cl)CC1; 0.85
O=C(Nc1ccccc1/C=C/c1n[nH]c2ccccc12)c1ccccc1; 1.20
O=C(c1ccccc1)[C@H]1Nc2ccc(Cl)cc2[C@H]2c3ccccc3O[C@H]21; 1.48
C=CC(=O)N1CCN([C@@H](CC2CC2)c2ccc([C@H](C)Nc3ncc4c(n3)N(CC)C(=O)OC4)cc2)CC1; 1.36

I'm hoping you can list log10(TGI) for every compound here, please.
1. CN1CCN(c2cc(F)c(NC3=C(Cl)C(=O)c4ncccc4C3=O)c(F)c2)CC1
2. Oc1ccc(CCNc2nc3ccccc3c3[nH]c4ccccc4c23)cc1O
3. C=CCn1c(SCC(=O)Nc2ccc(C(=O)/C=C/c3cc(OC)c(OC)c(OC)c3)cc2)nnc1-c1cc(OC)c(OC)c(OC)c1
4. CCCCCCCCCCCCCOCCOCCOCCCCC(O)CCCCCCCCCC1=C[C@H](C)OC1=O (stereo not given in full)

[out]
1. 0.52
2. 1.28
3. 1.77
4. 1.35

* * *

system: HS 578T breast; experiment: NCI tumour cell line growth inhibition, 48 h
Exercise: for every item that follows, state its recorded TGI.

CCCCOc1ccc(/C=C/C2=[N+](CCO)CCO2)cc1; > 100 µM

Give me TGI for each of these compounds, listed below.
1. CSC(=Nc1ccccc1)c1c(C)[nH]n(-c2ccccc2)c1=O
2. O=C(Nc1ccc(Cl)cc1)c1cc(S(=O)(=O)Nc2nc3ncccc3[nH]2)c(SSc2cc(Cl)c(C(=O)Nc3ccc(Cl)cc3)cc2S(=O)(=O)Nc2nc3ncccc3[nH]2)cc1Cl
3. Cc1ccc(S(=O)(=O)N(CC(O)COc2ccccc2)c2c(F)c(F)c(F)c(F)c2F)cc1 (centres undefined)

[out]
1. > 100 µM
2. > 100 µM
3. 42.6 µM

* * *

system: 786-0 renal; experiment: NCI tumour cell line growth inhibition, 48 h
OBSERVABLE: TGI (µM)
Numbers only, in µM.

O=C(O)CN(CCN(CC(=O)O)CC(=O)O)CCN(CC(=O)O)CC(=O)O; 6.72
COc1cc(/C=C2\CC3C4CC=C5C[C@@H](O)CC[C@]5(C)C4CC[C@]3(C)\C2=N\O)cc(OC)c1OC (some centres not stated); 72.2
CCCCOC(=O)Nc1ccc(S(=O)(=O)Nc2c(Cl)cccc2Cl)cc1; 79.5

Now consider the entry below.
[in] For CC(C)C(Sc1nc(-c2ccccc2)c(-c2ccccc2)[nH]1)C(=O)N/N=C/c1ccc(Cl)cc1 (configuration not stated) , what is its reported TGI?
[out] 40.8

* * *

system: EKVX NSCLC; assay: NCI tumour cell line growth inhibition, 48 h
OBSERVABLE: TGI (µM)
One number for each entry, in µM.

c1ccc2[nH]c(-c3ccc(Nc4nc(N5CCCC5)nc5[nH]ncc45)cc3)nc2c1; 3.12
CCOC(=O)c1sc2nc(=S)[nH]c(NC(N)=S)c2c1C; 30.6
Cc1ccc(/C=C/C(=O)c2ccc(F)cc2)s1; 20.3

Please find the next molecule below.
[in] I'm curious: which TGI was measured for `O=C(c1ccccc1)[C@H]1Nc2ccc(Cl)cc2[C@H]2c3ccccc3O[C@H]21` tested on EKVX NSCLC?
[out] 28.6

* * *

tested on: OVCAR-3 ovarian; assay: NCI tumour cell line growth inhibition, 48 h; in the data active = GI50 below about 0.43 µM; inactive = the rest
Hi there, use one of these labels in your reply, thanks! T (active), F (inactive)

Below, 3 molecules whose answers are already recorded.
N#CSc1c[nH]c2ccc(/C=C/C(=O)/C=C(O)/C=C/c3ccc4[nH]cc(SC#N)c4c3)cc12; F
Clc1ccc2c(NCCCCNc3nc(N4CCOCC4)nc4ccccc34)ccnc2c1; F
COc1ccc(-c2cc(=O)c3c(C)ccnc3[nH]2)cc1; F

[in] Lab log entry: `CCOc1cc(/C=C/C(=O)CC(=O)/C=C/c2ccc(OC(=O)CNc3nc4ccc(OC)cc4s3)c(OCC)c2)ccc1OC(=O)CNc1nc2ccc(OC)cc2s1` — outcome as called in the assay?
[out] F

[in] # lookup: test call for `COc1ccccc1C1C(C#N)=C(N)SC(N)=C1C#N`
[out] F

[in] # fetch the recorded call for `COc1ccc(-c2nc(-c3nc4cc(Cl)c(Cl)cc4[nH]3)c3ccccn23)cc1` here
[out] F

[in] Per the records of this test, what outcome belongs to COc1cccc2c1C(=O)c1c(O)c3c(c(O)c1C2=O)C[C@@](O)(/C(C)=N/NC(=O)c1cccc([N+](=O)[O-])c1)C[C@@H]3OC1CC(N)C(O)C(C)O1 (some centres not stated) ?
[out] T

[in] What classification did `CC(=O)Nc1ccc(CC[C@H]2CCC/C=C/[C@@H]3C[C@H](O)C[C@H]3[C@H](O)/C=C/C(=O)O2)cc1` end up with in this test?
[out] T

[in] Test call, this molecule: `CC(C)Cn1cnc2c(N)nc3ccccc3c21`
[out] F

[in] # fetch the recorded call for `C=CC(=O)N1CCN([C@@H](CC2CC2)c2ccc([C@H](C)Nc3ncc4c(n3)N(CC)C(=O)OC4)cc2)CC1` here
[out] F

[in] // return assay outcome for `CCCN1CCC(Oc2cc(Nc3nc(Nc4cccc(F)c4C(N)=O)c4cc[nH]c4n3)c(OC)cc2Cl)CC1`
[out] F

[in] Recorded test outcome, item `[O-]c1ccccc1C=NCCN=Cc1ccccc1[O-].[O]=[U+2]=[O]`
[out] F

* * *

Please provide measured TGI for the entries that follow.
tested on: NCI-H460 lung; assay: NCI tumour cell line growth inhibition, 48 h

Example entries begin here.
Cc1cc2c3c(c1)S(=O)(=O)c1cc(Cl)ccc1N3CCC2; > 100 µM
O=S(=O)(c1ccccc1)N1CCC1c1ccccc1 (stereo not given); > 100 µM

Batch request: TGI for each of the following compounds.
1. [Cu].c1ccc2c(c1)C1=NC2=NC2=NC(=NC3=NC(=NC4=NC(=N1)c1ccccc14)c1ccccc13)c1ccccc12
2. CC(C)C(Sc1nc(-c2ccccc2)c(-c2ccccc2)[nH]1)C(=O)N/N=C/c1ccc(Cl)cc1 (stereo not given)
3. CC(=O)Oc1ccc2c(c1)O/C(=C\c1ccc(N(C)C)cc1)C2=O
4. CCN(CC)P(=O)(c1ccc2c(c1)OCCOCCOCCOCCO2)N(CC)CC
5. CCCCCCCCCCCC(c1ccccc1)[N+](C)(C)C (stereo not given)
6. CCOC(=O)c1nc2ccccc2nc1Nc1cc(OC)c(OC)c(OC)c1

[out]
1. > 100 µM
2. 52.8 µM
3. > 100 µM
4. > 100 µM
5. 3.2 µM
6. > 100 µM

Record TGI per entry; entries follow.
1. COc1ccc(-c2nc(-c3nc4cc(Cl)c(Cl)cc4[nH]3)c3ccccn23)cc1
2. O=[N+]([O-])c1ccc(Cl)c(C2CC(c3cccc4ccccc34)=Nc3ccccc3S2=O)c1 (stereo not given)

[out]
1: > 100 µM; 2: > 76.4 µM

* * *

Give TGI for every item shown.
system: A549 NSCLC; assay: NCI tumour cell line growth inhibition, 48 h
One number for each entry, in µM.

Study these solved cases before continuing.
CC(C)C(Sc1nc(-c2ccccc2)c(-c2ccccc2)[nH]1)C(=O)N/N=C/c1ccc(Cl)cc1 (centres undefined); 82.3
CN1CCN(c2cc(F)c(NC3=C(Cl)C(=O)c4ncccc4C3=O)c(F)c2)CC1; 16.3

Pending molecule:
[in] Requested field: TGI. Item: `O=C(Nc1ccccc1/C=C/c1n[nH]c2ccccc12)c1ccccc1`
[out] 13.6

* * *

Give measured TGI for each item. Keep answers brief.
tested on: OVCAR-3 ovarian; experiment: NCI tumour cell line growth inhibition, 48 h

COC(=O)C12CCCN1CCC2; > 100 µM
Fc1ccc(/C=C2\COCC3=C2NC(=S)NC3c2ccc(F)cc2)cc1 (stereo not given); 32.6 µM
Cc1ccc(/C=C/C(=O)c2ccc(F)cc2)s1; 3.29 µM
C=CC(=O)N1CCN([C@@H](CC2CC2)c2ccc([C@H](C)Nc3ncc4c(n3)N(CC)C(=O)OC4)cc2)CC1; 26.5 µM
CCN1CC2=C(OC(N)=C(C#N)C2c2ccc(Cl)cc2)/C(=C/c2ccc(Cl)cc2)C1 (stereo not given); > 100 µM
CCOc1cc2c(cc1OC)c[n+](C)c1c3cc(OC)c(OC)cc3ccc21; > 100 µM
Cc1cc(C)c2c(c1)CSCc1cc(C)cc(C)c1-2; > 100 µM
COc1ccc(-c2nc(-c3nc4cc(Cl)c(Cl)cc4[nH]3)c3ccccn23)cc1; > 100 µM

# return TGI for each item in the list
1. Cc1ccc2[nH]c3c(c2c1)C1CCC(C(C)(C)C)CC1C1C(=O)N(c2ccc(Oc4ccccc4)cc2)C(=O)C31 (stereo not given)
2. CC(C)N1CCOC(c2ccc(O)c(O)c2)C1 (stereo not given)

[out]
1. 35.4 µM
2. > 100 µM
